# target_system: human TLR8 (Homo sapiens (Human))
# experiment: TLR8 inhibition reporter assay (HEK-Blue cells, SEAP reporter, R848 stimulation)
# condition: read-out: TLR8 IC50, HEK-Blue cells overexpressing human TLR8, R848 15.9 μM
pIC50: −log10 of the molar value.
Each record here notes measured pIC50.
measured_attribute: pIC50

>>> print(df.to_string())
                                    molecule  measured_attribute  endpoint_value
 0  Cc1ccc(S(=O)(=O)N2CCC(c3ccc4[nH]c(-c5ccnc(C)c5)c(C(C)C)c4c3)CC2)cc1 [Example 554]               pIC50            5.97
 1  CCCN1CCC(c2ccc3[nH]c(-c4cc(C)nc(C)c4)c(C(C)C)c3c2)CC1 [Example 323]               pIC50            8.41
 2  Cc1cc(-c2[nH]c3ccc(C4CCN(C(=O)CCNS(=O)(=O)c5ccccc5)CC4)cc3c2C(C)C)cc(C)n1 [Example 120]               pIC50            6.80
 3  Cc1cc(-c2[nH]c3ccc(C4CCN(C5COC5)CC4)cc3c2C(C)C)c(F)c(C)n1 [Example 729]               pIC50            7.47
 4  Cc1cc(-c2[nH]c3ccc(C4CCN(C(C)C)CC4)cc3c2C(C)C)c(C)cn1 [Example 641]               pIC50            8.01
 5  Cc1cc(-c2[nH]c3ccc(C4CCN(C(=O)CN5CCCCC5C)CC4)cc3c2C(C)C)cc(C)n1 (stereo not drawn) [Example 377]               pIC50            7.76
 6  Cc1cc(-c2[nH]c3ccc(C4CCN(CC5CCCCC5)CC4)cc3c2C(C)C)cc(C)n1 [Example 328]               pIC50            7.11
 7  CCc1c(-c2ccnc(OC)c2)[nH]c2ccc(C3CCN(C4CCN(C5CCCC5)CC4)CC3)cc12 [Example 785]               pIC50            6.93
 8  COC(=O)C1CC(N2CCC(c3ccc4[nH]c(-c5ccnc(C)c5)c(C(C)C)c4c3)CC2)CCN1 (stereo not drawn) [Example 704]               pIC50            8.39
 9  Cc1cc(-c2[nH]c3ccc(C4CCN(C(=O)CN(CCO)Cc5ccc(F)cc5)CC4)cc3c2C(C)C)cc(C)n1 [Example 407]               pIC50            7.15
10  Cc1cc(-c2[nH]c3ccc(C4CCN(C(=O)CN(C)CCC5(O)CCCC5)CC4)cc3c2C(C)C)cc(C)n1 [Example 408]               pIC50            7.14
11  Cc1cc(-c2[nH]c3ccc(C4CCN(C(=O)[C@@H]5C[C@@H](F)CN5)CC4)cc3c2C(C)C)cc(C)n1 [Example 190]               pIC50            8.02
12  Cc1cc(-c2[nH]c3ccc(C4CCN(CC(=O)N5CCCCC5)CC4)cc3c2C(C)C)cc(C)n1 [Example 241]               pIC50            7.97
13  Cc1cc(-c2[nH]c3ccc(C4CCN(CC(=O)N(CCO)C(C)C)CC4)cc3c2C(C)C)cc(C)n1 [Example 299]               pIC50            6.95
14  Cc1nccc(-c2[nH]c3ccc(C4CCN(CC(=O)N(C)C)CC4)cc3c2C(C)C)c1F [Example 648]               pIC50            8.43

* * *

Each record here notes measured IC50.
# target_system: human TLR8 (Homo sapiens (Human), UniProt Q9NR97)
# Sequence (Q9NR97 27-1041): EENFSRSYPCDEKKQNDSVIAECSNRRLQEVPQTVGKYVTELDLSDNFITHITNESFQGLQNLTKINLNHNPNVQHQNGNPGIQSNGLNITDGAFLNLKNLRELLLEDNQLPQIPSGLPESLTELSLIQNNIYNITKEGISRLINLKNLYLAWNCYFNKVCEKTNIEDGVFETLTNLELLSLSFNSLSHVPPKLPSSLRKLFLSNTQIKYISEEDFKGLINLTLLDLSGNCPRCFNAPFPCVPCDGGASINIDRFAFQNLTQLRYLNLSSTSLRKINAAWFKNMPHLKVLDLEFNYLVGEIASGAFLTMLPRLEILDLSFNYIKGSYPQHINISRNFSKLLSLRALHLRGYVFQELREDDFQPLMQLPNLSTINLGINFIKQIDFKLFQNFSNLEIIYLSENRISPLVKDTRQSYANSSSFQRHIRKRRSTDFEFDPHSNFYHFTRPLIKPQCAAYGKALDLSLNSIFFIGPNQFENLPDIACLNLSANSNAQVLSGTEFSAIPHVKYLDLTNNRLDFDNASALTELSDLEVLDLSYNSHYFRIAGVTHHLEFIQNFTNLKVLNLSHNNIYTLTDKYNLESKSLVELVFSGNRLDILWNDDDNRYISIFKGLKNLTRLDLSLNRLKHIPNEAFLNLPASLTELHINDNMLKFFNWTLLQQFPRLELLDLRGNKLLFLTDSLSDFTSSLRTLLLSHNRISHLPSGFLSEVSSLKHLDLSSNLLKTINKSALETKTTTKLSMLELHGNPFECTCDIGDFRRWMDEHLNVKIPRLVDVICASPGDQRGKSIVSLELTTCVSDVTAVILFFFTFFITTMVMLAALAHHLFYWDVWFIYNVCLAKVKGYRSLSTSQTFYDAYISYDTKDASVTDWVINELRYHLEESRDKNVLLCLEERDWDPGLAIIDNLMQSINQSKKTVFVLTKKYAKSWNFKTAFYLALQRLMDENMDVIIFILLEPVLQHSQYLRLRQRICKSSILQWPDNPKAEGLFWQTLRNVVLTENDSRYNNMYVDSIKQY
# experiment: TLR8 inhibition reporter assay (HEK-Blue cells, SEAP reporter, R848 stimulation);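 further: compounds tested from 0.05 nM to 50 µM, 22 h at 37 °C, SEAP measured with HEK-Blue Detection, inhibition relative to agonist plus DMSO versus a known inhibitor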
# condition: read-out: TLR8 IC50, HEK-Blue cells overexpressing human TLR8, R848 15.9 μM
measured_attribute: IC50 (nM)

>>> df
                                    compound                             target_system  unit_text  endpoint_value
 0  Cc1cc(-c2[nH]c3ccc(C4CCN(C(=O)CN5C[C@H](C)C[C@@H]5CO)CC4)cc3c2C(C)C)cc(C)n1  human TLR8 (Homo sapiens (Human), UniProt Q9NR97)         nM              27
 1  COC(C)CN1CCC(c2ccc3[nH]c(-c4cc(C)nc(C)c4)c(C(C)C)c3c2)CC1 (stereo not drawn)  human TLR8 (Homo sapiens (Human), UniProt Q9NR97)         nM             4.5
 2  Cc1cc(-c2[nH]c3ccc(C4CCN(C5CC(C)OC(C)C5)CC4)cc3c2C(C)C)ccn1 (stereo not drawn) [Example 713]  human TLR8 (Homo sapiens (Human), UniProt Q9NR97)         nM            14.8
 3  COc1cc(-c2[nH]c3ccc(C4CCN(Cc5c[nH]c(C)n5)CC4)cc3c2C(C)C)ccn1  human TLR8 (Homo sapiens (Human), UniProt Q9NR97)         nM            27.1
 4  Cc1cc(-c2[nH]c3ccc(C4CCN(C(=O)CN(C)C)CC4)cc3c2CC(F)F)cc(C)n1  human TLR8 (Homo sapiens (Human), UniProt Q9NR97)         nM             285
 5  Cc1cc(-c2[nH]c3ccc(C4CCN(C5CCCOC5)CC4)cc3c2C(C)C)cc(C)n1 (stereo not drawn)  human TLR8 (Homo sapiens (Human), UniProt Q9NR97)         nM             8.7
 6  Cc1cc(-c2[nH]c3ccc(C4CCN(CC(=O)N(C)C)CC4)cc3c2C(C)C)cc(C)n1  human TLR8 (Homo sapiens (Human), UniProt Q9NR97)         nM             4.3
 7  Cc1cc(-c2[nH]c3ccc(C4CCN(Cc5cnn(C)c5)CC4)cc3c2C(C)C)cc(C)n1  human TLR8 (Homo sapiens (Human), UniProt Q9NR97)         nM             2.3
 8  Cc1cc(-c2[nH]c3ccc(C4CCN(C(=O)CS(C)(=O)=O)CC4)cc3c2C(C)C)ccn1  human TLR8 (Homo sapiens (Human), UniProt Q9NR97)         nM             184
 9  Cc1cc(-c2[nH]c3ccc(C4CCN(C(=O)c5c(C)nn(C)c5C)CC4)cc3c2C(C)C)cc(C)n1  human TLR8 (Homo sapiens (Human), UniProt Q9NR97)         nM            77.1
10  Cc1cc(-c2[nH]c3ccc(C4CCN(C(=O)CN5CCCS5(=O)=O)CC4)cc3c2C(C)C)cc(C)n1  human TLR8 (Homo sapiens (Human), UniProt Q9NR97)         nM            49.8
11  CNCC(=O)N1CCC(c2ccc3[nH]c(-c4cc(C)ncc4F)c(C(C)C)c3c2)CC1  human TLR8 (Homo sapiens (Human), UniProt Q9NR97)         nM               5
12  Cc1cc(-c2[nH]c3ccc(C4CCNCC4)cc3c2CC(F)F)ccn1  human TLR8 (Homo sapiens (Human), UniProt Q9NR97)         nM            39.4
13  Cc1cc(-c2[nH]c3ccc(C4CCN(C(=O)CN(C)C)CC4)cc3c2C(C)C)c(C)cn1  human TLR8 (Homo sapiens (Human), UniProt Q9NR97)         nM             5.2
14  Cc1cc(-c2[nH]c3ccc(C4CCN(Cc5ccn(C)n5)CC4)cc3c2C(C)C)c(F)cn1  human TLR8 (Homo sapiens (Human), UniProt Q9NR97)         nM             0.9

* * *

# target_system: human TLR7 (Homo sapiens (Human), UniProt Q9NYK1)
# Sequence (Q9NYK1 27-1049): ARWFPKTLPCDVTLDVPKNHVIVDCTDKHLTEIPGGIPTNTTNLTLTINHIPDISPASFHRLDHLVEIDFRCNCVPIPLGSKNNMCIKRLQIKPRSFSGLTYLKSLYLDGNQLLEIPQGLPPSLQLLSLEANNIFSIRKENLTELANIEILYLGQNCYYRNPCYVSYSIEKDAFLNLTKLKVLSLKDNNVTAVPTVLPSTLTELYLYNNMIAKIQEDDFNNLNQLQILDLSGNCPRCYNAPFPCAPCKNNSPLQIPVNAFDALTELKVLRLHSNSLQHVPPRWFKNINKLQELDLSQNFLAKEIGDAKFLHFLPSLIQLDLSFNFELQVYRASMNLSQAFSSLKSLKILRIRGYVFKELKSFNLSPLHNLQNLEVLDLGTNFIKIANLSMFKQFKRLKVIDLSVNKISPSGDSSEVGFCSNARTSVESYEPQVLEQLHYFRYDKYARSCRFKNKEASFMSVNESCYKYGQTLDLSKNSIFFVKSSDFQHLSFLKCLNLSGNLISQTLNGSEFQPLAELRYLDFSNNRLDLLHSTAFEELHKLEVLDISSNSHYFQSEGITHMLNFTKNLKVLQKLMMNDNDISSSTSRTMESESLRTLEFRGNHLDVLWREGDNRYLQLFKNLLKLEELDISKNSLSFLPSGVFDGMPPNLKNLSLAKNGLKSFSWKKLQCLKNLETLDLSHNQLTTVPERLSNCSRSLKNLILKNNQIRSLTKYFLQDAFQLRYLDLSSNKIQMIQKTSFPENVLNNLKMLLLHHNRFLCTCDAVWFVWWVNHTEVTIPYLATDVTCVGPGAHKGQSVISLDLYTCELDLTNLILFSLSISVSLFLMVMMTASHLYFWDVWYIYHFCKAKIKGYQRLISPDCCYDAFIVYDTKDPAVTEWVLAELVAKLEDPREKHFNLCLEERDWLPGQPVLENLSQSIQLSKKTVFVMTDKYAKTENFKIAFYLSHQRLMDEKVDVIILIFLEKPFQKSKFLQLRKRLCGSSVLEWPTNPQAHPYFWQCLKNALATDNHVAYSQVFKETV
# experiment: TLR7 inhibition reporter assay (HEK-Blue cells, SEAP reporter, gardiquimod stimulation)
# Type: cell-based
# condition: HEK-Blue cells, gardiquimod 7.5 μM
pIC50: −log10 of the molar value.
measured_attribute: pIC50

                                smiles_data                             target_system  measured_attribute  endpoint_value
0  Cc1cc(-c2[nH]c3cc(F)c(C4CCN(Cc5ncn(C)n5)CC4)cc3c2C(C)C)cc(C)n1  human TLR7 (Homo sapiens (Human), UniProt Q9NYK1)               pIC50            8.21
1  CCc1c(-c2ccncc2)[nH]c2ccc(C3CCN(CCNC)CC3)cc12  human TLR7 (Homo sapiens (Human), UniProt Q9NYK1)               pIC50            6.17
2  Cc1c(-c2ccncc2)[nH]c2ccc(C3CCN(C4CCN(C)CC4)CC3)cc12  human TLR7 (Homo sapiens (Human), UniProt Q9NYK1)               pIC50            6.41
